Assay: folding stability dG unfold (combined trypsin and chymotrypsin); higher = more stable
recorded-endpoint: folding stability dG unfold (kcal/mol)
Hi! Could you send only the number? It should be in kcal/mol, unit omitted.

construct-sequence	folding stability dG unfold / kcal/mol
SAGGSAGGSAAPDLVTETETRTHPETGLVITRERVTLPSTGTTEERTVVTDPETGVTTTEKSSAGGSAGGSA [r18_383_JUSTAS]	-0.139
SKKTVYRIVIELENGEKLEIEVPLGSEVKIEKKEDGTITITVNGKKIEIKLKPGEKAKIVKIEKLPEEEESA [r9_773_TrROS_Hall]	2.52
SAGFYFRITEITVNPDAGKLTIRNPNGQEQEIPPGGKISIKMRFYRFNDNGGKPETFEMEHTIPIPPGDSAG [r14_366_TrROS]	3.15
SAGGSAGGSDYKIEIEVEPMDPEDGYYQVELEIYDPNNGEPKEKIPVHMDSPEDAKDAIKELISAGGSAGGS [r12_26_TrROS]	0.456
SAGGSAGGSAGGEKEPVTLLVVRVDGKLVVVSEEELKKLAEELNVEVEVRLVTVTKEELKSAGGSAGGSAGG [r7_185_TrROS_Hall]	1.57
SAGGSAGGKLVLKIKIYNKKTKKVYEFEIEADSLEELKEALKKLGLPKDVKIVSVELRPLDEEPSAGGSAGG [r6_23_TrROS_Hall]	4.79

Q: Please report the recorded folding stability dG unfold for SAGGKKIKVEVKIEIKIEKNPDGSYTIRIKITVKVTNENGEKFEVKVELEITLSEEELEKLKKLLEELSAGG [r13_412_TrROS_Hall] .
A: 3.5

Q: Then SAGGSAGGSKKKKIEIIIVMSKEEAEKIAEELKKKYNIKEIKIKVIPLKKNSPKVKELLKKLKSAGGSAGGS [r12_649_TrROS_Hall] ?
A: 1.62

Q: Then SAGGSVIVKLPNGKILEVSPSELAGYKPGAAVKFPDGTAQVVNPETDEVIDIPIDSPEKIIEAIKKAASAGG [r13_962_TrMRF] ?
A: 0.163

Q: Then SAGGSAGGSKMVLKVTLENGKTIEIEAGETIEEIKAKIEEEFGKPVKIKVEKVSAEELGLKPESAGGSAGGS [r12_379_TrROS_Hall] ?
A: 1.33

Q: Then SAGGSAGGSAGGLPPFDLGFESVEVEEVFPDGPVVVTVRLPDRTVRLVVVGGRIVRVEPSSAGGSAGGSAGG [r17_396_TrMRF] ?
A: 1.75

Q: Then SAGGSAGGSAGGKTLRIKVEETEYVVLFPNTGRLLVIPPGYEAEIELDDAPDVLILGRPPSAGGSAGGSAGG [r11_939_TrMRF] ?
A: 1.34

Q: Then SMEPGELRLRAKVPLRIVNPDGEEIADIEIEVRSIEELEEAIAEAARELAERLGRPDAPVVIDDIEVEDESA [r9_376_TrMRF] ?
A: 0.482

Q: Then SIEEIADTLQKLGLNVNIDDIELEPNPDGRFRIQVQVSGEPIRQVEVPPPPPPPPEEEVRDPDGKEHKVRSA [r9_442_TrROS] ?
A: -0.404

---

Assay: folding stability dG unfold from trypsin proteolysis; higher = more stable
recorded-endpoint: folding stability dG unfold (kcal/mol)
Hi! Could you send only the number? It should be in kcal/mol, unit omitted.

# count of solved cases: 3
construct-sequence	recorded-endpoint	number
SAGGSAGGSAGGGVEVLSAERRRIPETGLVLVVIREKEPLKPIVVLMPEEDAVVFLKHFSAGGSAGGSAGGS [r10_988_TrMRF]	folding stability dG unfold	0.14
SAGGSAGGSAPEVKIKVELFENENGELTATATIEVDGKLYKITVKFDKNGKIVEVKIEELPSAGGSAGGSAG [r3_165_TrROS_Hall]	folding stability dG unfold	2.83
SAGSRILERLREEGLTITKVTSVEKGPGYERIEVETALPDGTTGKVKVTRDPADPDKIEVELEFTPAEVSAG [r5_683_JUSTAS]	folding stability dG unfold	0.797

Now for a further sequence.
Q: Please report the recorded folding stability dG unfold for SAGGMIVTTIPGSPAIKVEIPFPETPFSATITIPIAPDGTVTADLKPHPDMSEELIEKIKELAKELLKSAGG [r13_139_JUSTAS] .
A: 1.03
